Reported values of GI50 for individual entries
- Tested on: SK-MEL-28
- run_description: NCI tumour cell line growth inhibition, 48 h
The source made the active and inactive calls. Rule as the data show it: active = GI50 up to about 1.1 µM and inactive = higher.

See these solved cases before continuing.
compound=O=[N+]([O-])c1cc([N+](=O)[O-])c(/C=C/c2ccc(Cl)c(Cl)c2)cc1/C=C/c1ccc(Cl)c(Cl)c1 measured_parameter=GI50 measured_result="26.5 µM (inactive)"
compound=N#Cc1sc2c(c1OC(=O)c1ccc(C(F)(F)F)cc1)c(=O)n(-c1ccccc1)c(=S)n2-c1ccccc1 measured_parameter=GI50 measured_result="33.8 µM (inactive)"
compound="N#CC(C(=O)CCC(=O)Nc1ccc(Cl)cc1)c1ccccc1Cl (stereo not given)" measured_parameter=GI50 measured_result="> 100 µM (inactive)"

Query :: Can you look up the measured GI50 of CCOc1cc(NC(C)=O)ccc1C(=O)N/N=C/c1ccco1 for me?
Result :: > 100 µM (inactive)

Query :: # lookup: GI50 of CC(C)(O)C1COC2=C1C(=O)c1ccccc1C2=O (stereo not given)
Result :: 23.2 µM (inactive)

Query :: What value of measured GI50 is listed for Cc1ccc2ccc(-c3ccccc3)c3c2c1C(=O)c1ccccc1C3=O ?
Result :: > 100 µM (inactive)

Query :: Bench note: what GI50 did Nc1nn2c(nc(N)c3c(N)n[nH]c32)c1/N=N\c1ccc(Br)cc1 show?
Result :: 7.73 µM (inactive)

Query :: # input compound: CCOC(=O)c1nnsc1N/N=C\c1ccc([N+](=O)[O-])cc1 ; wanted: its GI50
Result :: > 100 µM (inactive)

Query :: Consider the compound shown here: CC(C)C1NC(=O)[C@H](C)OC(=O)[C@@H](C(C)C)NC(=O)[C@@H](C)OC(=O)C(C(C)C)NC(=O)[C@H](C)OC1=O (stereo not given in full) What is its recorded GI50?
Result :: > 100 µM (inactive)

Query :: Which GI50 is listed for CC1(C)SCc2nc3ccccc3n21 ?
Result :: > 100 µM (inactive)

* * *

- System: HOP-62
- run_description: NCI tumour cell line growth inhibition, 48 h
Calls of active or inactive are those of the source. Cut-off read from the data, not from the text of the source: active = GI50 up to about 1.1 µM and inactive = higher.
measured_parameter: GI50

Consider the reported GI50 for these compounds:
compound=CCOC(=O)NC(=O)c1cn(CCNCCO)c(=O)[nH]c1=O measured_result="> 100 µM (inactive)"
compound="CC1CN=C(Nc2cccc(C(F)(F)F)c2)S1 (stereo not given)" measured_result="95.3 µM (inactive)"
compound="O=C(Nc1ccn(C2CC(I)C(COC(c3ccccc3)(c3ccccc3)c3ccccc3)O2)c(=O)n1)c1ccccc1 (stereo not given)" measured_result="14 µM (inactive)"
compound=O=[N+]([O-])c1cc2ncc(-c3ccccc3)c(O)c2cc1/C(Cl)=C/c1ccccc1 measured_result="16.3 µM (inactive)"

Here is the next item to consider.
Query :: What GI50 value was documented for this compound, Cc1cc2nc(N3C(=O)/C(=C/Cc4ccco4)N=C3c3ccccc3)sc2cc1C ?
Result :: 54.7 µM (inactive)

* * *

- Test system: UO-31
- run_description: NCI tumour cell line growth inhibition, 48 h
Active and inactive are the calls of the source. Rule as the data show it: active = GI50 up to about 1.1 µM and inactive = higher.
measured_parameter: GI50

Example entries begin here.
compound="S=C1OC2CCCC[C@H]2O1 (some centres not stated)" measured_result="> 100 µM (inactive)"
compound=Cn1c(-c2cccs2)cc(-c2cccs2)c1-c1ccsc1 measured_result="> 100 µM (inactive)"
compound=O=C1NC(=S)N/C1=C\c1ccc(Br)s1 measured_result="55.2 µM (inactive)"
compound="CCO[C@@]12CCC3CC4CC[C@@](OCC)(O1)C4C32 (some centres not stated)" measured_result="> 100 µM (inactive)"
compound="CN1C(c2ccccc2)CC(=O)C(N)C1c1ccccc1 (configuration not stated)" measured_result="25.5 µM (inactive)"
compound=O=C(C=C1SCCS1)/C=C\c1ccc(Cl)cc1 measured_result="> 100 µM (inactive)"

// switching to the query compound
Query :: // map N#C/C(=C\c1ccc(F)cc1)c1nc2ccccc2c(=O)[nH]1 to recorded GI50 (system: UO-31)
Result :: > 100 µM (inactive)

* * *

- System: HOP-62
- run_description: NCI tumour cell line growth inhibition, 48 h
The source made the active and inactive calls. Cut-off read from the data, not from the text of the source: active = GI50 up to about 1.1 µM and inactive = higher.
measured_parameter: GI50

Reference set, count: 4
compound="C=C1C(C(=O)O)C1C(=O)O (stereo not given)" tested_on=HOP-62 measured_result="> 100 µM (inactive)"
compound=CCN(CC)CCOc1ccc(/C=C(\C#N)c2ccc(OCCN(CC)CC)cc2)cc1 tested_on=HOP-62 measured_result="10.6 µM (inactive)"
compound="O=C(O)/C=C(/C(=O)O)C12CCN3CC4=CCOC5CC(=O)NC1C5C4CC32 (stereo not given)" tested_on=HOP-62 measured_result="> 100 µM (inactive)"
compound=O=C1/C(=C/Cc2ccco2)N=C(c2ccccc2)N1c1nc2ccc(Sc3ccccc3)cc2[nH]1 tested_on=HOP-62 measured_result="30.1 µM (inactive)"

Query :: I am curious: what GI50 value has been reported for CCOC(=O)c1c(-c2ccccc2)c(OC)cn1C ?
Result :: > 10 µM (inactive)

Query :: What measured GI50 goes with COc1ccc(/C=C/NC=O)cc1 ?
Result :: > 100 µM (inactive)

Query :: Look up GI50 for this compound: CC1CCc2c(sc3ncnc(N/N=C/c4ccc(Cl)c(Cl)c4)c23)C1 (stereo not given)
Result :: 25.2 µM (inactive)

* * *

- System: SNB-19
- run_description: NCI tumour cell line growth inhibition, 48 h
Active and inactive are the calls of the source. No stated cut-off is given here; in the data, active = GI50 up to about 1.1 µM and inactive = higher. Residues, ends and D or L forms follow the SMILES beside them. *: point of attachment. Cbz = O=C(OCc1ccccc1)*
measured_parameter: GI50

These recorded examples may help you get a feel for the data.
molecule=CC1=C(C(=O)CC(=O)C(=O)Nc2ccccc2C(F)(F)F)Sc2ccccc2N1 tested_on=SNB-19 measured_result="35.1 µM (inactive)"
molecule=O=C1c2cccc3cc([N+](=O)[O-])cc(c23)C(=O)N1Nc1ccc([N+](=O)[O-])cc1[N+](=O)[O-] tested_on=SNB-19 measured_result="18.2 µM (inactive)"
molecule="O=C1C2C3C=CC(C2C(=O)N1COP(=O)(O)O)C1C2C(=O)N(COP(=O)(O)O)C(=O)C2C31 (stereo not given)" tested_on=SNB-19 measured_result="> 100 µM (inactive)"
molecule="CC(NC(=O)C(NC(=O)OCc1ccccc1)C(C)C)C(=O)NCC(=O)O (stereo not drawn) (Cbz-Val-Ala-Gly-OH; configuration not given here)" tested_on=SNB-19 measured_result="> 100 µM (inactive)"
molecule=COc1ccc(OC)c2c(C(=O)O)c(Cc3ccccc3)ccc12 tested_on=SNB-19 measured_result="> 100 µM (inactive)"
molecule=COc1ccc(-c2nnc3nc4ccccc4n3c2O)cc1 tested_on=SNB-19 measured_result="> 100 µM (inactive)"
molecule=CCOP(=O)(OCC)/C(C#N)=C/c1ccc[nH]1 tested_on=SNB-19 measured_result="> 100 µM (inactive)"
molecule="N#CC(C(=O)CCC(=O)Nc1ccc(Cl)c(Cl)c1)c1ccccc1 (stereo not given)" tested_on=SNB-19 measured_result="> 100 µM (inactive)"

Query :: Write down the reported GI50 of CCSc1nc(N)c2c(-c3ccccc3)c3c(nc2n1)CCC3 , test system: SNB-19.
Result :: > 100 µM (inactive)

Query :: Can you look up GI50 on SNB-19 for O=C1c2ccccc2CCC1C(O)(C(F)(F)F)C(F)(F)F (stereo not given) ?
Result :: > 100 µM (inactive)

* * *

- System: DU-145
- run_description: NCI tumour cell line growth inhibition, 48 h
Calls of active or inactive are those of the source. Rule as the data show it: active = GI50 up to about 1.1 µM and inactive = higher.
The molecules listed here are annotated with their GI50.

molecule=COC(=O)c1ccc2c(c1)S/C(=C/c1ccc3ccc4cccc5ccc1c3c45)S2 measured_result="> 100 µM (inactive)"
molecule=O=C(O)c1cccc(/N=N/c2c(S(=O)(=O)O)ccc3c2C(=O)c2ccccc2C3=O)c1O measured_result="> 100 µM (inactive)"
molecule=CC1(C)[C@H]2CC[C@]1(C)[C@H](OC(=O)NNC(=O)O[C@@H]1C[C@@H]3CC[C@@]1(C)C3(C)C)C2 measured_result="16.3 µM (inactive)"
molecule="CN1CCCOC(c2ccc(Cl)cc2)O1 (stereo not given)" measured_result="> 100 µM (inactive)"
molecule=CN(c1c(Cl)cccc1Cl)S(=O)(=O)c1ccccc1[N+](=O)[O-] measured_result="> 100 µM (inactive)"

Query :: Form field: reported GI50 of Cc1ccc2c(=O)c3cccc(CC(=O)O)c3[nH]c2c1C
Result :: > 100 µM (inactive)

Query :: Entry CN(C)CC1CN/C(=N\C(=O)Nc2ccccc2)O1 (stereo not given) : reported GI50 = ?
Result :: > 100 µM (inactive)

Query :: Please give the measured GI50 for this molecule: NC(=O)CCSC(CC(=O)c1ccc(Cl)cc1)c1ccc(Cl)cc1 (stereo not given)
Result :: 27.5 µM (inactive)

Query :: # lookup: GI50 of Oc1c(N2CCCCC2)cc(-c2cc(N3CCCCC3)c(O)c3ccccc23)c2ccccc12
Result :: 23.4 µM (inactive)

Query :: Can you share its GI50? I mean this molecule: O=C(Cc1csc(N/N=C2\C(=O)Nc3ccccc32)n1)Nc1ccccc1
Result :: 24.9 µM (inactive)
